# Tested on: MDA-MB-468 breast
# test_method_notes: NCI-60 one-dose screen, 48 h (100 = growth as untreated, 0 = no growth, -100 = all killed)
# test_conditions: 10 µM unless noted
The panel holds about 83,000 compounds, 20% with a hit somewhere; the sample as a whole holds those more often.
Response key: yes means growth >= 30%; no means growth < 30%.

Solved cases below.
[
  {
    "compound": "Cc1ncc(C(=O)Nc2ccc(CN3CCN(C)CC3)c(C(F)(F)F)c2)cc1C#Cc1c(N)ncc2ccccc12",
    "target_or_test_system": "MDA-MB-468 breast",
    "answer_label": "no"
  },
  {
    "compound": "O=C(/C=C(/C=C/c1cccc2[nH]ccc12)OB(F)F)/C=C/c1cccc2[nH]ccc12",
    "target_or_test_system": "MDA-MB-468 breast",
    "answer_label": "no"
  },
  {
    "compound": "COC(=O)c1ccc2c(C(=Nc3ccc(N(C)C(=O)CN4CCN(C)CC4)cc3)c3ccccc3)c(O)[nH]c2c1",
    "target_or_test_system": "MDA-MB-468 breast",
    "answer_label": "yes"
  },
  {
    "compound": "O=C1c2cc3c(cc2-c2c1c1ccc(Cl)cc1c(=O)n2CCCNCCO)OCO3",
    "target_or_test_system": "MDA-MB-468 breast",
    "answer_label": "no"
  },
  {
    "compound": "CC1=C(NCCN2CCCC2)C(=O)c2c(OCc3ccc(C(F)(F)F)cc3)cccc2C1=O",
    "target_or_test_system": "MDA-MB-468 breast",
    "answer_label": "yes"
  },
  {
    "compound": "COc1ccc(C2c3[nH]c4ccc(Cl)cc4c3CCN2c2oc(CO)nc2C#N)cc1 (stereo not given)",
    "target_or_test_system": "MDA-MB-468 breast",
    "answer_label": "no"
  }
]

Decide: is the reported value of growth for CC1CCC(C(=O)O)N1 (stereo not given) equal to or greater than 30%?
yes

Does "CC(C)CCN(CCCNc1c2c(nc3cc(Cl)ccc13)CCCC2)CCC(C)C" have a reported growth of at least 30%?
no

Given the entry "Fc1cc(-c2cnc3nonc3n2)c(Cl)cc1Cl" , answer whether its growth meets or surpasses 30%.
yes
